This collection of values is drawn from ChEMBL document CHEMBL1138775.

- tested system: UniProtKB P80276
- method notes: Inhibition of aldose reductase from pig lenses
pIC50: −log10 of the molar value.
I would appreciate it if you labelled entries met when pIC50 is 5 or higher, otherwise not met.

Worked examples follow.
O=C(O)Cc1cn(Cc2cccc(Cl)c2)c2ccccc12: not met
COc1ccc2c(C(=S)N(C)CC(=O)O)cccc2c1C(F)(F)F: met
Clc1ccc(CN(Cc2ccc(Cl)cc2)c2nnn[nH]2)cc1: not met
O=C(O)c1nnn(-c2cccc(Br)c2)c1-c1ccccc1: not met

Proceed to the following item.
Can `O=C1NC(=O)[C@@]2(CCOc3ccc(F)cc32)N1` be said to have pIC50 at or above 5? met

====

Kindly state pIC50 for each of the entries shown.
- tested system: Aldo-keto reductase family 1 member B1 (Sus scrofa)
- method notes: Inhibition of aldose reductase from pig lenses; no inhibition
pIC50: −log10 of the molar value.

CC(OCc1ccc(Cl)cc1)C(NC(=O)CC(C)(C)C)C(=O)O (configuration not stated): < 3.40

Query molecule follows.
# lookup: CC(OCc1ccccc1)C(NC(=O)OCc1ccccc1)C(=O)O (configuration not stated) on Aldo-keto reductase family 1 member B1 (Sus scrofa), pIC50 = < 3.52
